src = patent US9040547B2

- Assay system: EGFR L858R (Homo sapiens, UniProt P00533, L858R)
- Sequence (P00533 25-1210 L858R): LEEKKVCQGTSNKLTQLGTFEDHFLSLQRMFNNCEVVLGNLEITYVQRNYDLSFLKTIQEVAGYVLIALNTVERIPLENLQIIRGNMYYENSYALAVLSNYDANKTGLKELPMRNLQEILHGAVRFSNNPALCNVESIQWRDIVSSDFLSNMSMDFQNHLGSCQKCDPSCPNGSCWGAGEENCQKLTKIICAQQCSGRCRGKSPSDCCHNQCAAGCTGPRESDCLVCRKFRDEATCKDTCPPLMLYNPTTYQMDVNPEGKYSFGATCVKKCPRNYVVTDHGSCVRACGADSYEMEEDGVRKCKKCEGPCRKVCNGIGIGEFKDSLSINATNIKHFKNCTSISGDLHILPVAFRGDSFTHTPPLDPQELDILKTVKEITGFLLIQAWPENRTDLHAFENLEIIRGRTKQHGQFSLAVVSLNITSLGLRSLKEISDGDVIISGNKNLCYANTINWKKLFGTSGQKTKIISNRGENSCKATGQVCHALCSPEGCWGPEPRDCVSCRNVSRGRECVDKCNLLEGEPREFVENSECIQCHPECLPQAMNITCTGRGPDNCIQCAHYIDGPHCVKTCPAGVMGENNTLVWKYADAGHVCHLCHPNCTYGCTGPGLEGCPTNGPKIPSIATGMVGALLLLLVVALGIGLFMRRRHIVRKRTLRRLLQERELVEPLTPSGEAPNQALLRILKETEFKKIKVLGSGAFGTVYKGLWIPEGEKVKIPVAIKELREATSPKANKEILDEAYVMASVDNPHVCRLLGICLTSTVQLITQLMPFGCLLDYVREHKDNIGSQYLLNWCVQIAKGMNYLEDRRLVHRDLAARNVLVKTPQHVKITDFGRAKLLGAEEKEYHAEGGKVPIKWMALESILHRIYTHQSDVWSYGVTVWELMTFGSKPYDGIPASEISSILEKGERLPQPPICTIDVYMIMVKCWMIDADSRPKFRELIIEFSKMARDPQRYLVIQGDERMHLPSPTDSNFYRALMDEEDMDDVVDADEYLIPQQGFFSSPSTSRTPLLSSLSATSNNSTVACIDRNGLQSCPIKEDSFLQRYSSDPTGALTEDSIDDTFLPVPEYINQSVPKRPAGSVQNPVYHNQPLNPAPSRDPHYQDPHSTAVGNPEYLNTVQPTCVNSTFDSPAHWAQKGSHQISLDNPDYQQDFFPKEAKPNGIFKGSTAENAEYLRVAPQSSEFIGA
- Assay comment: pEGFR Y1068 ELISA assay, NIH3T3/EGFR_L858R cells
- Measurement context: 3T3 cell line, 2 hrs compound treatment; read-out: pEGFRY1068 ELISA3T3 L858R IC50
Would you mind telling me the reported pIC50 of each entry?
Scale for pIC50: -log10 of concentration given in mol/L; no unit attached.

For C=CC(=O)Nc1cccc(Oc2nc(Nc3cc(COC)nn3C)nc3[nH]ccc23)c1 , what is its reported pIC50?
6.15

Repeat with C=CC(=O)N1C[C@H](COc2nc(Nc3cnn(CC)n3)nc3[nH]cc(Cl)c23)[C@@H](OC)C1
7.31

Repeat with C=CS(=O)(=O)N1CCc2c(Oc3nc(Nc4cnn(C)c4)nc4[nH]ccc34)cccc21
6.26

Repeat with C=CC(=O)N[C@H]1CC[C@@H](Oc2nc(Nc3cnn(C)c3)nc3[nH]cc(Cl)c23)C1
5.29

Repeat with C=CC(=O)Nc1cccc(Oc2nc(Nc3cnn(C)c3)nc3[nH]cc(C#N)c23)c1
6.98

Repeat with C=CC(=O)Nc1cccc(Oc2nc(Nc3cc(C4CC4)nn3C)nc3[nH]ccc23)c1
6.31

Repeat with C=CC(=O)Nc1cccc(Oc2nc(Nc3cnn(CC(C)(C)O)c3)nc3[nH]ccc23)c1
5.99

Repeat with C=CC(=O)N1C[C@H](COc2nc(Nc3cn(C)nc3CC)nc3[nH]cc(F)c23)[C@@H](OC)C1
6.68

Repeat with C=CC(=O)Nc1cccc(Oc2nc(Nc3cnn(C)n3)nc3[nH]ccc23)c1
7.00

Repeat with C=CC(=O)Nc1cccc(Oc2nc(Nc3cnn(C)c3)nc3[nH]cnc23)c1
6.17

Repeat with C=CC(=O)N(C)[C@H]1C[C@H](Oc2nc(Nc3cn(C)nc3C)nc3[nH]cc(Cl)c23)C1
6.66

Repeat with C=CC(=O)Nc1cccc(Oc2nc(Nc3cc(CC)nn3C)nc3[nH]ccc23)c1
6.12

Repeat with C=CC(=O)Nc1cccc(Oc2nc(Nc3cnn(CCN(C)C)c3)nc3[nH]ccc23)c1
6.85

Repeat with C=CC(=O)Nc1cccc(Oc2nc(Nc3cn(C)nc3C)nc3[nH]ccc23)c1
7.04

Repeat with C=CC(=O)N[C@@H]1CCCN(c2nc(Nc3cnn(C)c3)nc3[nH]cc(Cl)c23)C1
5.05

Repeat with C=CC(=O)N(C)[C@H]1C[C@H](Oc2nc(Nc3cnn(CC(O)CN(C)C)c3)nc3[nH]cc(Cl)c23)C1 (stereo partly shown)
5.45

Repeat with C=CC(=O)Nc1cccc(Oc2nc(Nc3cnn(C4CCN(C)CC4)c3)nc3[nH]ccc23)c1
6.92

Repeat with C=CC(=O)Nc1cccc(Oc2nc(Nc3ccn(C)n3)nc3[nH]cc(C#N)c23)c1
6.38

Repeat with C=CC(=O)Nc1cccc(Oc2nc(Nc3cnn(C(C)C)c3)nc3[nH]ccc23)c1
6.98

Repeat with C=CC(=O)N1CCc2c(Oc3nc(Nc4cnn(C)c4)nc4[nH]ccc34)cccc21
7.05

Repeat with C=CC(=O)N1C[C@H](COc2nc(Nc3cnn([C@H]4CCOC4)c3)nc3[nH]cc(Cl)c23)[C@@H](OC)C1
6.53

====

- Assay system: EGFR L858R (Homo sapiens, UniProt P00533, L858R)
- Assay comment: pEGFR Y1068 ELISA assay, NIH3T3/EGFR_L858R cells;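 note: sandwich ELISA of phospho-EGFR Tyr1068 in lysates of stably transfected NIH/3T3 pools after 2 h compound exposure at 37 °C, 11-point threefold dilution series run in duplicate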
- Measurement context: 3T3 cell line, 2 hrs compound treatment; read-out: pEGFRY1068 ELISA3T3 L858R IC50
pIC50: −log10 of the molar value.
Our labelling divides records by pIC50 into ranges: band A: < 6; band B: ≥ 6 and < 7; band C: ≥ 7

For C=CC(=O)N(C)C1CC(Oc2nc(Nc3cnn(C)c3)nc3[nH]cc(C#N)c23)C1 (stereo not drawn) [Example 61] , which pIC50 bin applies?
band A

Repeat with C=CC(=O)N1C[C@H](COc2nc(Nc3cnn(C)c3)nc3[nH]ccc23)[C@@H](C)C1 (single isomer, unassigned) [Example 4]
band B

Repeat with C=CC(=O)N[C@H]1C[C@@](C)(Oc2nc(Nc3cnn(C)c3)nc3[nH]cc(Cl)c23)C1 [Example 69]
band B

Repeat with C=CC(=O)N1C[C@H](COc2nc(Nc3ccn(C)n3)nc3[nH]cc(Cl)c23)[C@@H](OC)C1 [Example 111]
band B

Repeat with C=CC(=O)Nc1cccc(Oc2nc(Nc3cnn(CC(=O)N(C)C)c3)nc3[nH]ccc23)c1 [Example 58]
band A

Repeat with C=CC(=O)Nc1cccc(Oc2nc(Nc3ccn(CCN(C)C)n3)nc3[nH]ccc23)c1 [Example 51]
band B

Repeat with C=CC(=O)N1C[C@H](COc2nc(Nc3cnn([C@@H]4CCOC4)c3)nc3[nH]cc(Cl)c23)[C@@H](OC)C1 [Example 103]
band B

Repeat with C=CC(=O)Nc1cccc(COc2nc(Nc3cnn(C)c3)nc3[nH]ccc23)c1 [Example 43]
band A

Repeat with C=CC(=O)N[C@H]1C[C@@H](Oc2nc(Nc3cnn(C)c3)nc3[nH]cc(C#N)c23)C1 (single isomer, unassigned) [Example 5]
band A

Repeat with C=CC(=O)N[C@H]1C[C@H](Nc2nc(Nc3cnn(C)c3)nc3[nH]ccc23)C1 [Example 6]
band A

Repeat with C=CC(=O)N1C[C@H](COc2nc(Nc3cnn(C)c3)nc3[nH]cc(Cl)c23)[C@@H]([C@H](C)O)C1 (single isomer, unassigned) [Example 10]
band A

Repeat with C=CC(=O)Nc1cccc(Oc2nc(Nc3cn(C)nc3C(F)(F)F)nc3[nH]ccc23)c1 [Example 32]
band C

Repeat with C=CC(=O)Nc1cccc(Oc2nc(Nc3cnn(C)c3C)nc3[nH]ccc23)c1 [Example 24]
band B

Repeat with C=CC(=O)Nc1cccc(Oc2nc(Nc3cnn(C)c3)nc3[nH]cc(-c4cnn(C)c4)c23)c1 [Example 60]
band C

Repeat with C=CC(=O)Nc1cccc(Oc2nc(Nc3ccn(C)n3)nc3[nH]cc(F)c23)c1 [Example 1]
band B

Repeat with C=CC(=O)N1C[C@@H]2CN(c3nc(Nc4cn(C)nc4OC)nc4[nH]cc(Cl)c34)C[C@@H]2C1 [Example 99]
band B

Repeat with C=CC(=O)N1CC(Oc2nc(Nc3cnn(C)c3)nc3[nH]cc(Cl)c23)C1 [Example 105]
band B

Repeat with C=CC(=O)N1CC[C@@H](Oc2nc(Nc3cnn(C)c3)nc3[nH]cc(Cl)c23)C1 [Example 65]
band B

Repeat with C=CC(=O)Nc1cc(F)cc(Oc2nc(Nc3cnn([C@@H]4CCN(C)C4)c3)nc3[nH]ccc23)c1 [Example 107]
band C

Repeat with C=CC(=O)Nc1cccc(Oc2nc(Nc3cnn(C4CCOC4)c3)nc3[nH]ccc23)c1 (stereo not drawn) [Example 39]
band B

====

- Assay system: EGFR L858R+T790M (Homo sapiens, UniProt P00533, L858R/T790M)
- Sequence (P00533 25-1210 T790M/L858R): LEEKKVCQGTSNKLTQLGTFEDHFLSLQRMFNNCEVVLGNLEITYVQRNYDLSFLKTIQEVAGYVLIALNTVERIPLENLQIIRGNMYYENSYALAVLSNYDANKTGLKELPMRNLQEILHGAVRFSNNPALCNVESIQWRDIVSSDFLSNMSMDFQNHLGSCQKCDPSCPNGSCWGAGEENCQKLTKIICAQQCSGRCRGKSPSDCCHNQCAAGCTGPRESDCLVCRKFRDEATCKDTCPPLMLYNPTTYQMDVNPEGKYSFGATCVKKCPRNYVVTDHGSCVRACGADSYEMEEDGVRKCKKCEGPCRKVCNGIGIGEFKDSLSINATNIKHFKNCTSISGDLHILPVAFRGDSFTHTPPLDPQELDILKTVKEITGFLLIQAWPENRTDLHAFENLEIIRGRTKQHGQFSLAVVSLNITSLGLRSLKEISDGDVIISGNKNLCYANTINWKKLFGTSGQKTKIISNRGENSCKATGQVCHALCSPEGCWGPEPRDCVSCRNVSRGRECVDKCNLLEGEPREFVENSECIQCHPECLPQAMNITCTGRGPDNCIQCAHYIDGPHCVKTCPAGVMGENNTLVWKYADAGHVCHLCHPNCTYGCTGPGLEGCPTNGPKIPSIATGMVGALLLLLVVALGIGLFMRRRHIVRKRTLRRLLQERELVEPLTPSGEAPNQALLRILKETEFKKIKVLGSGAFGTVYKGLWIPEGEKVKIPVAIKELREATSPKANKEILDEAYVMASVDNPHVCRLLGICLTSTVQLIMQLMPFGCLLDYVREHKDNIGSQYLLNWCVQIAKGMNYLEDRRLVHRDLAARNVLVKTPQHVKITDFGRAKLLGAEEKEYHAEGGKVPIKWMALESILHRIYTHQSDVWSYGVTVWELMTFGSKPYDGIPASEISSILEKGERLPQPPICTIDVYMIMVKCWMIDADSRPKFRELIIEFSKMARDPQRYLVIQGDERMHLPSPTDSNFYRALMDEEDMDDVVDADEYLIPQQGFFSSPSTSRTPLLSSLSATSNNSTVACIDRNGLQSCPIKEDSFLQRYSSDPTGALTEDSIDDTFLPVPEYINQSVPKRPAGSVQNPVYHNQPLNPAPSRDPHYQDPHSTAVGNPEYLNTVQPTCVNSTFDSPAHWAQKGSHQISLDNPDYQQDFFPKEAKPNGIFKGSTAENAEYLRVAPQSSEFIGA
- Assay comment: pEGFR Y1068 ELISA assay, NIH3T3/EGFR_L858R+T790M cells
- Measurement context: 3T3 cell line, 2 hrs compound treatment; read-out: pEGFRY1068 ELISA3T3T790M—L858R IC50
Doc: threshold 20 nM (exclusive). Items with IC50 beneath it return T; others return F.

Field: below-cutoff. Rule: recorded IC50 strictly less than 20 nM. Subject: C=CC(=O)N1CCc2c(Oc3nc(Nc4cnn(C)c4)nc4[nH]cc(C#N)c34)cccc21
F

Repeat with C=CC(=O)N1C[C@H](Nc2nc(Nc3cnn(C)c3)nc3[nH]cc(Cl)c23)[C@@H](C(F)F)C1
F

Repeat with C=CC(=O)Nc1cccc(Oc2nc(Nc3cnn(CCN(C)C)c3)nc3[nH]cnc23)c1
F

Repeat with C=CC(=O)Nc1cccc(Oc2nc(Nc3cnn([C@H]4CCN(C)C4)c3)nc3[nH]ccc23)c1F
T

Repeat with C=CC(=O)N(C)[C@H]1C[C@H](Oc2nc(Nc3cnn(C)c3)nc3[nH]cc(Cl)c23)C1
T

Repeat with C=CC(=O)Nc1cccc(Oc2nc(Nc3cnn(C(C)C)c3)nc3[nH]ccc23)c1
T

Repeat with C=CC(=O)N[C@H]1C[C@H](Nc2nc(Nc3cnn(C)c3)nc3[nH]ccc23)C1
F

Repeat with C=CC(=O)Nc1cccc(Oc2nc(Nc3cnn(CC(C)(C)O)c3)nc3[nH]ccc23)c1
F

Repeat with C=CC(=O)N1C[C@H](COc2nc(Nc3cnn(C)c3)nc3[nH]ccc23)[C@@H](C)C1 (single isomer, unassigned)
F

Repeat with C=CC(=O)N1C[C@H](COc2nc(Nc3cn(C)nc3CC)nc3[nH]cc(F)c23)[C@@H](OC)C1
F

Repeat with C=CC(=O)Nc1cccc(Oc2nc(Nc3cc(COC)nn3C)nc3[nH]ccc23)c1
F

Repeat with C=CC(=O)Nc1cccc(Oc2nc(Nc3cc(C4CC4)nn3C)nc3[nH]ccc23)c1
F

Repeat with C=CC(=O)Nc1cccc(COc2nc(Nc3cnn(C)c3)nc3[nH]ccc23)c1
F

Repeat with C=CC(=O)N[C@H]1C[C@@H](Oc2nc(Nc3cnn(C)c3)nc3[nH]cc(C#N)c23)C1 (single isomer, unassigned)
F

Repeat with C=CC(=O)N1C[C@H](COc2nc(Nc3ccn(C)n3)nc3[nH]cc(Cl)c23)[C@@H](OC)C1
T

Repeat with C=CC(=O)Nc1cccc(Oc2nc(Nc3cnn(C4CCOC4)c3)nc3[nH]ccc23)c1 (stereo not shown)
T

Repeat with C=CC(=O)N1CCc2c(Oc3nc(Nc4cnn(C)c4)nc4[nH]ccc34)cccc21
T

Repeat with C=CC(=O)Nc1cccc(Oc2nc(Nc3ccn(C)n3)nc3[nH]cc(Cl)c23)c1
T

Repeat with C=CC(=O)N(C)[C@H]1C[C@H](Oc2nc(Nc3cnn(CC(O)CN(C)C)c3)nc3[nH]cc(Cl)c23)C1 (stereo partly shown)
F

Repeat with C=CC(=O)Nc1cc(F)cc(Oc2nc(Nc3cnn([C@@H]4CCN(C)C4)c3)nc3[nH]ccc23)c1
T

Repeat with C=CC(=O)Nc1cccc(Oc2nc(Nc3cnn(C4CCN(C)C4)c3)nc3[nH]cnc23)c1 (stereo not shown)
F

Repeat with C=CC(=O)Nc1cccc(Oc2nc(Nc3cn(C)nc3C(F)(F)F)nc3[nH]ccc23)c1
T

Repeat with C=CC(=O)Nc1cccc(Oc2nc(Nc3cnn(CCN(C)C)c3)nc3[nH]ccc23)c1
T

Repeat with C=CC(=O)Nc1cccc(Oc2nc(Nc3cc(CC)nn3C)nc3[nH]ccc23)c1
F

Repeat with C=CC(=O)Nc1cccc(Oc2nc(Nc3cnn(C)c3)nc3[nH]cc(-c4cccnc4)c23)c1
T
